B1: HESX1 (parent)
chain: SKYENYFSASERLSLKRELSWYRG

variants of: B1; assay: protein stability index of a GFP-peptide fusion (GPS, HEK-293T) (PSI 1-6); higher = more stable; settings: c terminus: a fixed tail appended;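 further: lentivirally expressed fusions sorted by FACS into six bins by GFP to DsRed ratio, PSI derived from sequencing read proportions per bin multiplied by bin number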
PROPERTY NAME: protein stability index
No unit in the answer, please; the number alone is enough.

Example entries and their recorded answers appear below.
Looking up S14M , I see its protein stability index listed as 1.74

The variant identified as E18Q registered its protein stability index at 1.52

Summary for this variant, A9P : protein stability index is 1.4

Further cases:
S8L has a reported protein stability index of 1.55

Short answer for S8A : protein stability index was 1.94

Reported protein stability index of S10F : 1.07
